Numbers sourced from ChEMBL document CHEMBL1201862.

Test system: A549
Test: NCI tumour cell line growth inhibition, 48 h
Activity calls are given as the source filed them. Cut-off read from the data, not from the text of the source: active = GI50 up to about 1.1 µM and inactive = higher.
Can you answer with just one of these options? true (1) for active, false (0) for inactive

Worked examples follow.
1. O=C(Cc1nc2ccccc2s1)C(=O)Nc1ccc(Cl)cc1 : false (0)
2. O=C1C(Cl)C2(CC(/C=C/c3ccccc3Cl)=NN2c2cccc(S(=O)(=O)O)c2)N1c1nc2ccccc2s1 (stereo unspecified) : false (0)

Req: Test call for this compound, please: CC(=O)c1c(O)c2c([nH]c1=O)CCCC2
Resp: false (0)

Req: # lookup: test call for COCC(C#N)NC1CC(OC2CC(O)(C(=O)CO)Cc3c(O)c4c(c(O)c32)C(=O)c2c(OC)cccc2C4=O)OC(C)C1O (stereo unspecified)
Resp: true (1)
